# system_under_test: S-adenosylmethionine synthase isoform type-2 (Homo sapiens, UniProt P31153)
# protocol: Inhibition of […] in MTAP-null human HCT-116 cells after 72 hrs by LC-MS/MS analysis relative to control
# Type: cell-based
# condition_description: HCT116-MTAP null
measurement_label: Imax (%)
Respond numerically; units are % and should not be typed.

GET /value?item= `Cn1cc2cc(-n3cc4ccc(OCC(F)F)nc4c(-c4ccc(Cl)cc4)c3=O)ccc2n1` &field=Imax returns 88

Item: `Cc1nc2ccc(-n3cc4cnc(NCC(F)(F)F)nc4c(-c4ccc(Cl)cc4)c3=O)cc2n1C` | Imax: 80

For reference, reported Imax for `COc1ccc(-n2cc3cnc(NCC(F)(F)F)nc3c(-c3ccc(Cl)cc3)c2=O)cc1` stands at 83

Note to self: Imax recorded for `COc1ccc(-n2cc3cnc(NCC(F)(F)F)nc3c(-c3ccc(Br)cc3)c2=O)cc1` was 84

Reported Imax for `Cn1cc2cc(-n3cc4ccc(NCC(F)(F)F)nc4c(-c4ccc(Cl)cc4)c3=O)ccc2n1` was 82

Value of Imax reported for the compound `O=c1c(-c2ccc(Cl)cc2)c2nc(NCC(F)(F)F)ncc2cn1-c1ccc2ncccc2c1` is 83

Reported Imax ( `Cn1cc2cc(-n3cc4ccc(CCC(F)(F)F)nc4c(-c4ccc(Cl)cc4)c3=O)ccc2n1` ) = 76

Lab note: `Cn1cnc2ccc(-n3cc4cnc(NCC(F)(F)F)nc4c(-c4ccc(Cl)cc4)c3=O)cc21` gave Imax of 80

Query `O=c1c(-c2ccc(Br)cc2)c2nc(NCC(F)(F)F)ncc2cn1-c1ccc2ncccc2c1` yields Imax of 84

Reported Imax for `Cn1cc2cc(-n3cc4ccc(OCC(F)(F)F)nc4c(-c4ccc(Cl)cc4)c3=O)ccc2n1` was 82

// `CCNc1ccc2cn(-c3ccc4nn(C)cc4c3)c(=O)c(-c3ccc(Cl)cc3)c2n1` : Imax value = 81

Looking up `CCOc1ccc2cn(-c3ccc4nn(C)cc4c3)c(=O)c(-c3ccc(Cl)cc3)c2n1` , I see its Imax listed as 89

Record summary for `Cn1cc2cc(-n3cc4cnc(NCC(F)(F)F)nc4c(-c4ccc(Cl)cc4)c3=O)ccc2n1` : reported Imax = 80

----------
# system_under_test: S-adenosylmethionine synthase isoform type-2 (Homo sapiens)
# protocol: Inhibition of […] in MTAP-null human HCT-116 cells after 72 hrs by LC-MS/MS analysis
# Assay type: cell-based, HCT116-MTAP null
measurement_label: log10(IC50) (log10 of the value in nM)
Scale: log10; quantity: IC50; unit before log: nM

# log10(IC50) measured on S-adenosylmethionine synthase isoform type-2 (Homo sapiens) for item `Cn1cc2cc(-n3cc4ccc(OCC(F)(F)F)nc4c(-c4ccc(Cl)cc4)c3=O)ccc2n1` = 1.51

Reading of log10(IC50) for `Cn1cc2cc(-n3cc4ccc(NCC(F)(F)F)nc4c(-c4ccc(Cl)cc4)c3=O)ccc2n1` with S-adenosylmethionine synthase isoform type-2 (Homo sapiens): 1.04

# log10(IC50) measured on S-adenosylmethionine synthase isoform type-2 (Homo sapiens) for item `CCOc1ccc2cn(-c3ccc4nn(C)cc4c3)c(=O)c(-c3ccc(Cl)cc3)c2n1` = 1.36

Param item: `O=c1c(-c2ccc(Cl)cc2)c2nc(NCC(F)(F)F)ncc2cn1-c1ccc2ncccc2c1` ; param system: S-adenosylmethionine synthase isoform type-2 (Homo sapiens); output log10(IC50): 1.90

log10(IC50) value, target or system S-adenosylmethionine synthase isoform type-2 (Homo sapiens), for `Cn1cc2cc(-n3cc4ccc(OCC(F)F)nc4c(-c4ccc(Cl)cc4)c3=O)ccc2n1` : 1.11

`Cn1cc2cc(-n3cc4ccc(CCC(F)(F)F)nc4c(-c4ccc(Cl)cc4)c3=O)ccc2n1` on S-adenosylmethionine synthase isoform type-2 (Homo sapiens) gives log10(IC50) = 2.00

// returns log10(IC50) for `COc1ccc(-n2cc3cnc(NCC(F)(F)F)nc3c(-c3ccc(Br)cc3)c2=O)cc1` with S-adenosylmethionine synthase isoform type-2 (Homo sapiens); value = 1.53

Measured log10(IC50) for this entry `Cn1cnc2ccc(-n3cc4cnc(NCC(F)(F)F)nc4c(-c4ccc(Cl)cc4)c3=O)cc21` on S-adenosylmethionine synthase isoform type-2 (Homo sapiens): 1.49

Entry `CCNc1ccc2cn(-c3ccc4nn(C)cc4c3)c(=O)c(-c3ccc(Cl)cc3)c2n1` , tested on S-adenosylmethionine synthase isoform type-2 (Homo sapiens), has a reported log10(IC50) of 1.00
